The reported measurements were obtained from ChEMBL document CHEMBL3885861.

# Organism: Rattus norvegicus
# Test Protocol: Open TG-GATES - Regimen: Daily Repeat
# Format: toxicity, organism-based, Sprague-Dawley
# Parameters: regimen Daily Repeat, gender Male, age 6 weeks
# Test Conditions: in vivo, po, 100 mg/kg, […], tissue Plasma, route gavage, dose level Low, time 14 day
Parameter Measured: Na

{"Compound": "CCOc1ccc(NC(=O)CC(C)O)cc1 (stereo not given)", "Meas Value": "145.2 meq/L"}
{"Compound": "NC(N)=Nc1nc(CSCCC(N)=NS(N)(=O)=O)cs1", "Meas Value": "140.6 meq/L"}
{"Compound": "COC1=CC(=O)C[C@@H](C)[C@]12Oc1c(Cl)c(OC)cc(OC)c1C2=O", "Meas Value": "140.6 meq/L"}
{"Compound": "CCOC(=O)CCC(=O)O[C@H]1[C@H](O[C@@H]2[C@@H](C)[C@H](O[C@H]3C[C@@](C)(OC)[C@@H](O)[C@H](C)O3)[C@@H](C)C(=O)O[C@H](CC)[C@@](C)(O)[C@H](O)[C@@H](C)C(=O)[C@H](C)C[C@@]2(C)O)O[C@H](C)C[C@@H]1N(C)C [ERYTHROMYCIN ETHYLSUCCINATE]", "Meas Value": "142.2 meq/L"}
{"Compound": "COc1ccc2[nH]c([S+]([O-])Cc3ncc(C)c(OC)c3C)nc2c1 (stereo not given)", "Meas Value": "140.6 meq/L"}
